- Test Target: catalytic domain of human Bub1 (amino acids 704-1085) (Homo sapiens)
- Construct: catalytic domain of human Bub1 (amino acids 704-1085); His6 (N); made in house; host or cells: Hi5 insect cells
- Experimental Details: Bub1 kinase assay (TR-FRET)
- Type: biochemical
- Experimental Conditions: TR-FRET; ATP 10 μM, peptide substrate 1 μM; 60 min at 22° C.; average or median if tested more than once; read-out: Inhibition of Bub1 kinase IC50
Measured Parameter: IC50 (µM)

Solved entries:
COCCOC(=O)N1CC(=O)c2c([nH]c(-c3ccncc3)c2Nc2ccccc2)C1 [Example 80]    0.011
O=C1CN(C(=O)NCC(F)F)Cc2[nH]c(-c3ccncc3)c(Nc3ccccc3)c21 [Example 83]    0.012
O=C1CN(S(=O)(=O)c2cccnc2)Cc2[nH]c(-c3ccncc3)c(Nc3ccccc3)c21 [Example 75]    0.006
O=C1CNCc2[nH]c(-c3ccnc(NC(=O)C4(F)CC4)c3)c(Nc3ccccc3)c21 [Example 132]    0.299
CC(=O)Nc1cc(-c2[nH]c3c(c2Nc2ccccc2)C(=O)CN(C(C)=O)C3)ccn1 [Example 112]    0.009
COC(=O)N1CC(=O)c2c([nH]c(-c3ccnc(NC(C)=O)c3)c2Nc2ccc(F)cc2)C1 [Example 314]    0.008
COC(=O)N1CC(=O)c2c([nH]c(-c3ccnc(NC(=O)C4(F)CC4)c3)c2Nc2ccccc2)C1 [Example 147]    0.008
CC(C)(C)OC(=O)N1CC(=O)c2c([nH]c(-c3ccnc(N)c3)c2Nc2ccc(F)cc2)C1 [Example 296]    0.172

I: CCOC(=O)N1CC(=O)c2c([nH]c(-c3ccncc3)c2Nc2ccccc2)C1 [Example 76]
II: COc1ccc(C(=O)Nc2cc(-c3[nH]c4c(c3Nc3ccccc3)C(=O)CN(C(=O)SC(C)(C)C)C4)ccn2)cc1F [Example 305]
### Prompt Determine, for I and II , which has the greater value of IC50. Mark your selection by writing its label.
### Response II

---

- Test Target: catalytic domain of human Bub1 (amino acids 704-1085) (Homo sapiens)
- Construct: catalytic domain of human Bub1 (amino acids 704-1085); His6 (N); made in house; host or cells: Hi5 insect cells
- Experimental Details: Bub1 kinase assay (TR-FRET)
- Format: biochemical
- Experimental Conditions: TR-FRET; ATP 10 μM, peptide substrate 1 μM; 60 min at 22° C.; average or median if tested more than once; read-out: Inhibition of Bub1 kinase IC50
pIC50: −log10 of the molar value.
Measured Parameter: pIC50

1: CN(C)CCOc1cnccc1-c1[nH]c2c(c1Nc1ccccc1)C(=O)CNC2
2: COC(=O)N1CC(=O)c2c([nH]c(-c3ccnc(NC(C)=O)c3)c2Nc2ccccc2)C1
3: CCC(=O)Nc1cc(-c2[nH]c3c(c2Nc2ccccc2)C(=O)COC3)ccn1
4: C[S+]([O-])CCNC(=O)N1CC(=O)c2c([nH]c(-c3ccncc3)c2Nc2ccccc2)C1 (racemic)
### Prompt Which order do these items take when sorted by rising pIC50? List them. Lab note: record answer as labels in requested order.
### Response 1, 3, 4, 2
(1: 6.99, 3: 7.30, 4: 7.68, 2: 8.15)

---

- Test Target: catalytic domain of human Bub1 (amino acids 704-1085) (Homo sapiens, UniProt O43683)
- Construct: catalytic domain of human Bub1 (amino acids 704-1085); His6 (N); made in house; host or cells: Hi5 insect cells
- Sequence (O43683 704-1085): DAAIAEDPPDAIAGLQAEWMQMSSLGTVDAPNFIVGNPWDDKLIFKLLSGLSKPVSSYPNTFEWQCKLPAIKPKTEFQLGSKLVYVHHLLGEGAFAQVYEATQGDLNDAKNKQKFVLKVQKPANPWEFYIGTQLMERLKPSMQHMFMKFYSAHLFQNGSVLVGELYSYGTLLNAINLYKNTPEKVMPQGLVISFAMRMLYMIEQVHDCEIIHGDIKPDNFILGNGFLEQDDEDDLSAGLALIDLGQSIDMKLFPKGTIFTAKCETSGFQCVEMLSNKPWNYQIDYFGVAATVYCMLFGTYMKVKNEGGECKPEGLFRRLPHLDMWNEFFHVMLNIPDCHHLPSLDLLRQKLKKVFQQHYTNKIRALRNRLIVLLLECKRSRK
- Experimental Details: Bub1 kinase assay (TR-FRET)
- Type: biochemical
- Experimental Conditions: TR-FRET; ATP 10 μM, peptide substrate 1 μM; 60 min at 22° C.; average or median if tested more than once; read-out: Inhibition of Bub1 kinase IC50
pIC50: −log10 of the molar value.
Measured Parameter: pIC50

Solved entries:
COC(=O)N1CC(=O)c2c([nH]c(-c3ccnc(NC(=O)[C@H]4C[C@H]4F)c3)c2Nc2ccccc2)C1    8.15
CC(C)(C)OC(=O)N1CC(=O)c2c([nH]c(-c3ccnc(NC(=O)[C@@H]4C[C@H]4F)c3)c2Nc2ccccc2)C1 (relative stereo)    8.15
COCCNC(=O)N1CC(=O)c2c([nH]c(-c3ccncc3)c2Nc2ccccc2)C1    7.96

A: COc1cnccc1-c1[nH]c2c(c1Nc1ccccc1)C(=O)CN(S(=O)(=O)CCC(F)(F)F)C2
B: CCNC(=O)N1CC(=O)c2c([nH]c(-c3ccnc(NC(C)=O)c3)c2Nc2ccccc2)C1
### Prompt Could you check which of A and B has a smaller value for pIC50? Mark your selection by writing its label.
### Response B

---

- Test Target: catalytic domain of human Bub1 (amino acids 704-1085) (Homo sapiens, UniProt O43683)
- Construct: catalytic domain of human Bub1 (amino acids 704-1085); His6 (N); made in house; host or cells: Hi5 insect cells
- Experimental Details: Bub1 kinase assay (TR-FRET)
- Type: biochemical
- Experimental Conditions: TR-FRET; ATP 10 μM, peptide substrate 1 μM; 60 min at 22° C.; average or median if tested more than once; read-out: Inhibition of Bub1 kinase IC50
pIC50: −log10 of the molar value.
Measured Parameter: pIC50

Solved entries:
CC(=O)Nc1cc(-c2[nH]c3c(c2Nc2ccc(C)cc2)C(=O)CN(C(=O)N(C)C)C3)ccn1    7.30
CC(C)S(=O)(=O)N1CC(=O)c2c([nH]c(-c3ccncc3OCC(F)(F)F)c2Nc2ccccc2)C1    7.19
COc1cc(C(=O)Nc2cc(-c3[nH]c4c(c3Nc3ccccc3)C(=O)CN(C(C)=O)C4)ccn2)ccc1F    8.00
CC(C)(O)C(=O)Nc1cc(-c2[nH]c3c(c2Nc2ccccc2)C(=O)COC3)ccn1    6.36

I: CN1CCN(C(=O)N2CC(=O)c3c([nH]c(-c4ccncc4OCC(F)(F)F)c3Nc3ccccc3)C2)CC1
II: CC(C)(C)OC(=O)N1CC(=O)c2c([nH]c(-c3ccnc(NC(=O)c4ccc(F)cc4)c3)c2Nc2ccccc2)C1
III: CC(=O)Nc1cc(-c2[nH]c3c(c2Nc2ccccc2)C(=O)CN(C(=O)OC(C)C)C3)ccn1
IV: CN(C)C(=O)N1CC(=O)c2c([nH]c(-c3ccncc3)c2Nc2ccccc2)C1
### Prompt Falling order of pIC50, please. Lab note: record answer as labels in requested order.
### Response IV, III, II, I
(IV: 8.40, III: 7.85, II: 7.55, I: 6.50)

---

- Test Target: catalytic domain of human Bub1 (amino acids 704-1085) (Homo sapiens)
- Construct: catalytic domain of human Bub1 (amino acids 704-1085); His6 (N); made in house; host or cells: Hi5 insect cells
- Experimental Details: Bub1 kinase assay (TR-FRET)
- Format: biochemical
- Experimental Conditions: TR-FRET; ATP 10 μM, peptide substrate 1 μM; 60 min at 22° C.; average or median if tested more than once; read-out: Inhibition of Bub1 kinase IC50
pIC50: −log10 of the molar value.
Measured Parameter: pIC50

Solved entries:
CC(=O)Nc1cc(-c2[nH]c3c(c2Nc2ccc(C)cc2)C(=O)CN(C(C)=O)C3)ccn1    6.72
CN1CCN(C(=O)N2CC(=O)c3c([nH]c(-c4ccncc4OCC(F)F)c3Nc3ccccc3)C2)CC1    7.18
COc1cnccc1-c1[nH]c2c(c1Nc1ccccc1)C(=O)CN(C(=O)OC(C)(C)C)C2    7.77

a: CC(C)(C)OC(=O)N1CC(=O)c2c([nH]c(-c3ccncc3)c2Nc2ccccc2)C1
b: COc1ccc(C(=O)Nc2cc(-c3[nH]c4c(c3Nc3ccccc3)C(=O)CN(S(=O)(=O)N(C)C)C4)ccn2)cc1F
c: CC(C)OC(=O)N1CC(=O)c2c([nH]c(-c3ccnc(NC(=O)C4(F)CC4)c3)c2Nc2ccccc2)C1
### Prompt Falling order of pIC50, please. Lab note: record answer as labels in requested order.
### Response b, a, c

---

- Test Target: catalytic domain of human Bub1 (amino acids 704-1085) (Homo sapiens, UniProt O43683)
- Construct: catalytic domain of human Bub1 (amino acids 704-1085); His6 (N); made in house; host or cells: Hi5 insect cells
- Experimental Details: Bub1 kinase assay (TR-FRET)
- Format: biochemical
- Experimental Conditions: TR-FRET; ATP 10 μM, peptide substrate 1 μM; 60 min at 22° C.; average or median if tested more than once; read-out: Inhibition of Bub1 kinase IC50
Measured Parameter: IC50 (nM)

Solved entries:
CC(=O)Nc1cc(-c2[nH]c3c(c2Nc2ccccc2)C(=O)CN(C(=O)c2cocn2)C3)ccn1 [Example 195]    24
CC(=O)Nc1cc(-c2[nH]c3c(c2Nc2ccccc2)C(=O)CN(C(=O)c2cccnc2)C3)ccn1 [Example 115]    45
O=C1COCc2[nH]c(-c3ccncc3F)c(Nc3ccccc3)c21 [Example 33]    17
CC(=O)Nc1cc(-c2[nH]c3c(c2Nc2ccccc2)C(=O)CN(C(=O)N2C[C@@H](C)O[C@@H](C)C2)C3)ccn1 [Example 255]    375
COc1ccc(C(=O)Nc2cc(-c3[nH]c4c(c3Nc3ccccc3)C(=O)CN(C(=O)OC(C)(C)C)C4)ccn2)c(C)c1 [Example 266]    72
CC(C)(C)OC(=O)N1CC(=O)c2c([nH]c(-c3ccncc3F)c2Nc2ccccc2)C1 [Example 11]    8
CCC(=O)N1CC(=O)c2c([nH]c(-c3ccncc3)c2Nc2ccccc2)C1 [Example 8]    4
Cn1c2c(c(Nc3ccccc3)c1-c1ccncc1)C(=O)CN(S(C)(=O)=O)C2 [Example 64]    1400

a: CNC(=O)N1CC(=O)c2c([nH]c(-c3ccnc(NC(C)=O)c3)c2Nc2ccc(C)cc2)C1 [Example 320]
b: CC(=O)Nc1cc(-c2[nH]c3c(c2Nc2ccccc2)C(=O)CN(C(=O)CC(F)(F)F)C3)ccn1 [Example 169]
### Prompt Determine, for a and b , which has the greater value of IC50. Mark your selection by writing its label.
### Response a
(a: 178 nM, b: 5 nM)
